// reported HC50 at 24 h per item
# PROCEDURE_SUMMARY: Hemolytic activity in human RBC assessed as hemoglobin release after 24 hrs by spectrophotometry
# Type: ADME, cell-based, Erythrocyte
# DETAILS: human red blood cells (RBC), read-out: ID50

Sample answers from the record:
MOLECULE | VALUE_KIND | TEST_RESULT
CC1(C)[N+]([O-])=c2ccc(COc3ccccc3/C=N\NC(N)=O)cc2=[N+]1[O-] | HC50 at 24 h | 50 µM
CC1(C)[N+]([O-])=c2ccc(COc3cccc(C=O)c3)cc2=[N+]1[O-] | HC50 at 24 h | < 50 µM
O=Cc1ccc(OCc2ccc3no[n+]([O-])c3c2)cc1 | HC50 at 24 h | < 50 µM
CC1(C)[N+]([O-])=c2ccc(COc3ccccc3/C=N\NC(=S)Nc3ccccc3)cc2=[N+]1[O-] | HC50 at 24 h | 66 µM
NC(=O)N/N=C/c1ccc(OCc2ccc3no[n+]([O-])c3c2)cc1 | HC50 at 24 h | > 200 µM

Return HC50 at 24 h for the following molecule: CC1(C)[N+]([O-])=c2ccc(COc3ccccc3/C=N\NC(=N)N)cc2=[N+]1[O-]
114 µM

Return HC50 at 24 h for the following molecule: CC1(C)[N+]([O-])=c2ccc(COc3ccccc3/C=N\NC(N)=S)cc2=[N+]1[O-]
> 200 µM

Return HC50 at 24 h for the following molecule: CC1(C)[N+]([O-])=c2ccc(COc3ccc(/C=N/NC(N)=O)cc3)cc2=[N+]1[O-]
> 200 µM

Return HC50 at 24 h for the following molecule: CC1CS(=O)(=O)CCN1/N=C/c1ccc([N+](=O)[O-])o1 (centres undefined) [NIFURTIMOX]
> 100 µM
